For reference, the following pIC50 results for Prostaglandin G/H synthase 1 (Ovis aries, UniProt P05979) were taken from various sources.
// returns pIC50 (minus log10 of molar concentration), number only

molecule: CS(=O)(=O)c1ccc(C#Cc2cccnc2)cc1
pIC50: 5.49
--
molecule: NS(=O)(=O)c1ccc(C#Cc2ccncc2)cc1
pIC50: 5.41
--
molecule: CC(Oc1cc(=O)oc2ccccc12)C(=O)N1CCCC1 (racemic)
pIC50: 4.86
--
molecule: O=C1OCC(c2ccc(Cl)cc2)=C1c1ccnc(F)c1
pIC50: 4.80
--
molecule: Fc1ccc(/N=C/c2c[nH]c3ccccc23)cc1
pIC50: 4.16

[in] Recall the recorded pIC50 for `COC(=O)[C@H](Cc1ccccc1)n1cc(COc2nc(Cl)nc(Nc3ccc(Cl)cc3)n2)nn1` with Prostaglandin G/H synthase 1 (Ovis aries, UniProt P05979) and state it.
[out] 5.30

[in] What pIC50 appears in the records for this molecule with Prostaglandin G/H synthase 1 (Ovis aries, UniProt P05979)? `C#Cc1cccc(Nc2ncnc3cc(OCCOC(=O)Cc4c(C)n(C(=O)c5ccc(Cl)cc5)c5ccc(OC)cc45)c(OCCOC)cc23)c1`
[out] 4.95

[in] Find the measured pIC50: item `O=C(Nc1ccc(F)cc1)c1ccc[nH]c1=O` , target or system Prostaglandin G/H synthase 1 (Ovis aries, UniProt P05979).
[out] 4.49

[in] Provide value of pIC50 for this record tested with Prostaglandin G/H synthase 1 (Ovis aries, UniProt P05979): `CSc1ccc(-c2cc(C(F)(F)F)nn2-c2ccc(S(N)(=O)=O)cc2F)cc1`
[out] 4.61

[in] API: value(readout=pIC50, system=Prostaglandin G/H synthase 1 (Ovis aries, UniProt P05979)) for record `CCOc1ccc(/C=C/c2ccc([N+](=O)[O-])cc2)cc1`
[out] 4.07

[in] Report pIC50 for CCSC[C@@H]1C[C@@](O)(c2ccccc2)C[C@H](c2ccc(Cl)cc2)O1 (relative stereo) tested on Prostaglandin G/H synthase 1 (Ovis aries, UniProt P05979).
[out] 6.38

[in] Checklist item: pIC50 tested on Prostaglandin G/H synthase 1 (Ovis aries, UniProt P05979), entry `Cn1cc(/C=C/C(=O)c2ccc(C#N)cc2)c2ccccc21` , value?
[out] 4.47

[in] Give pIC50 (Prostaglandin G/H synthase 1 (Ovis aries, UniProt P05979)) of the following molecule: `O=[N+]([O-])c1ccc(-c2nc(Nc3ccc(Br)cc3)c3c4c(sc3n2)CCCC4)cc1`
[out] 5.01

[in] Given the entry CCCCCN1C(=O)CCSC1c1ccc(S(C)(=O)=O)cc1 (configuration not stated) , what pIC50 was observed with Prostaglandin G/H synthase 1 (Ovis aries, UniProt P05979)?
[out] 4.83

====

pIC50: −log10 of the molar value.
Compiled from multiple publications: pIC50 readings for Prostaglandin G/H synthase 1 (Ovis aries).
Mark Met for reported pIC50 of 5 or greater; mark Not met for anything smaller.

[in] Answer whether pIC50 of CN(C)c1ccc(C2C=C(c3ccccc3)N3NC(=S)SC3=N2)cc1 (centres undefined) is greater than or equal to 5.
[out] Not met

[in] Given the entry `COC(=O)CNC(=O)c1ccccc1Nc1c(Cl)ccc(C)c1Cl` , answer whether its pIC50 meets or surpasses 5.
[out] Met

[in] Does the compound `CC(C)(C)c1cc(-c2nnc(O)s2)cc(C(C)(C)C)c1O` have recorded pIC50 that is 5 or more?
[out] Not met

[in] In plain terms: is recorded pIC50 at least 5 for `CCN(CC)C(=O)Cc1c(C)n(C(=O)c2ccc(Cl)cc2)c2ccc(OC)cc12` ?
[out] Not met

====

Several publications report IC50 on Prostaglandin G/H synthase 1 (Ovis aries, UniProt P05979); those values are gathered here.
Entry rule: numbers only, all in µM.

compound: O=C(Nc1ccccc1)Nc1nnc(-c2ccc(Cl)cc2)o1
reported metric: IC50
recorded value: 10.9
//
compound: CS(=O)(=O)c1ccc(C(=O)c2ccco2)cc1
reported metric: IC50
recorded value: 15.1
//
compound: COc1nnc(-c2cc(C(C)(C)C)c(O)c(C(C)(C)C)c2)s1
reported metric: IC50
recorded value: 2.6
//
compound: COc1ccc(C2=Cc3ccccc3CC2)c(OC)c1OC
reported metric: IC50
recorded value: 0.48
//
compound: O=C(N/N=C/c1coc2ccccc2c1=O)c1ccccc1
reported metric: IC50
recorded value: 406
//
compound: CCOc1cc(-c2ccccc2)c(-c2ccc(S(C)(=O)=O)cc2)c(=O)o1
reported metric: IC50
recorded value: 281
//
compound: N#CCC(=O)Nc1nnc(-c2cccnc2)o1
reported metric: IC50
recorded value: 13.1
//
compound: COc1cc(C2CC(c3ccc(S(C)(=O)=O)cc3)=NN2c2ccc(S(N)(=O)=O)cc2)cc(OC)c1OC (stereo unspecified)
reported metric: IC50
recorded value: 12.3

Attention now shifts to the item below.
[in] Lookup: IC50 / Prostaglandin G/H synthase 1 (Ovis aries, UniProt P05979) / `CS(=O)(=O)Nc1ccc(-c2cc(C(F)(F)F)nn2-c2ccc(Cl)cc2)cc1`
[out] 15.6

====

Ok so here's the combined literature set: IC50 for Prostaglandin G/H synthase 1 (Ovis aries, UniProt P05979).

compound: Cc1ccc(C2=NNC3(C2)C(=O)Nc2ccc(F)cc23)cc1 (centres undefined)
IC50: > 50 µM

[in] Kindly state the measured IC50 obtained for `COC(=O)c1cc(-c2cccc(I)c2)n(-c2ccc(S(C)(=O)=O)cc2)n1` with Prostaglandin G/H synthase 1 (Ovis aries, UniProt P05979).
[out] > 4 µM

[in] Lab note: need IC50 with Prostaglandin G/H synthase 1 (Ovis aries, UniProt P05979) for entry `CN1CCC(O)(c2cc(-c3ccncc3)c(-c3ccc(F)cc3)[nH]2)CC1` , please look it up.
[out] > 100 µM

[in] GET /values?readout=IC50&system=Prostaglandin G/H synthase 1 (Ovis aries, UniProt P05979)&item= `CC(C)(C)c1cc(-c2nnc(SCC(F)(F)F)s2)cc(C(C)(C)C)c1O`
[out] > 20 µM

[in] API: value(readout= IC50, system= Prostaglandin G/H synthase 1 (Ovis aries, UniProt P05979), query= `Clc1ccc(-c2nnc(/N=C/c3ccccc3)o2)cc1` )
[out] 7.54 µM

[in] Report IC50 for `O=C1COCCN1c1ccc(Nc2nc(Cl)nc(Nc3ccc(Cl)cc3)n2)cc1` tested on Prostaglandin G/H synthase 1 (Ovis aries, UniProt P05979).
[out] > 10 µM

====

Target: Prostaglandin G/H synthase 1 (Ovis aries, UniProt P05979)
Sequence (P05979 whole entry): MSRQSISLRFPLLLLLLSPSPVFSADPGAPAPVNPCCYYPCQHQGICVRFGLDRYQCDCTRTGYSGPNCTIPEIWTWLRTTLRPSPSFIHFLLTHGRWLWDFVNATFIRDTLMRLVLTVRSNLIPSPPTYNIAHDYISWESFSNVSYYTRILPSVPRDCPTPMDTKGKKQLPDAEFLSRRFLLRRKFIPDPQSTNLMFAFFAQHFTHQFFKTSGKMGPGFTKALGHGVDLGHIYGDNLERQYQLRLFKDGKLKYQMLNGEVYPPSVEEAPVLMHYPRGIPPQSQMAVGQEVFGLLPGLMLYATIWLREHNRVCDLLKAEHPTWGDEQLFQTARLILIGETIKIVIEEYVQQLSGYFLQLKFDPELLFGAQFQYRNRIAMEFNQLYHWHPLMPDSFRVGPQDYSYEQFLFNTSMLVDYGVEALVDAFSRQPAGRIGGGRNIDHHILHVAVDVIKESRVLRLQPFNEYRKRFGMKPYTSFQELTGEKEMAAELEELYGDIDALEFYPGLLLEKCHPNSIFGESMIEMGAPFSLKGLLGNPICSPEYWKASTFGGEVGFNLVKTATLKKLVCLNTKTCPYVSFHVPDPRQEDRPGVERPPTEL
Compiled literature IC50, tested on Prostaglandin G/H synthase 1 (Ovis aries, UniProt P05979).
I only need the number, in µM, no unit after it.

Look over these answered cases.
compound: O=C(Oc1ccccc1)c1c(-c2ccccc2)sc2c1CCCC2
measure unit: µM
recorded value: 61.2
--
compound: COc1ccc(-n2c(-c3ccc(S(C)(=O)=O)cc3)nc3c2CCCC3)cc1
measure unit: µM
recorded value: 42.2
--
compound: COC(=O)[C@H](Cc1ccccc1)n1nncc1COc1ccc2ccccc2c1-c1c(OCc2cnnn2[C@@H](Cc2ccccc2)C(=O)OC)ccc2ccccc12
measure unit: µM
recorded value: 150

Turning now to a further compound:
[in] # lookup: IC50 of Cc1ccc(N2C(=O)[C@@H](Oc3ccccc3)[C@H]2c2ccc(S(C)(=O)=O)cc2)cc1 (relative stereo)
[out] 18.1

====

Across several studies, molecules have been characterized by their IC50 on Prostaglandin G/H synthase 1 (Ovis aries, UniProt P05979); a selection follows.
Report only the number, with the unit µM understood.

chemical structure: S=C(N/N=C\c1cn(-c2ccccc2)nc1-c1ccc(Cl)cc1)Nc1ccccc1
IC50 / µM: 64.5
//
chemical structure: COc1ccc2c(c1)c(CC(=O)NCCCCO)c(C)n2C(=O)c1ccc(Cl)cc1
IC50 / µM: 86
//
chemical structure: COc1ccc(-n2c(-c3ccc(S(C)(=O)=O)cc3)cnc2SC)cc1
IC50 / µM: 2.61

[in] Notebook: pull reported IC50 for Prostaglandin G/H synthase 1 (Ovis aries, UniProt P05979), entry `Cc1ccc(-c2nc(-c3ccccc3O)n(-c3ccc(S(N)(=O)=O)cc3)n2)c(O)c1`
[out] 42.3

[in] Query for Prostaglandin G/H synthase 1 (Ovis aries, UniProt P05979): what IC50 does the record show for `c1ccc(-c2ccsc2-c2ccccc2)cc1` ?
[out] 28

[in] Request body: readout IC50, system Prostaglandin G/H synthase 1 (Ovis aries, UniProt P05979), query `COc1cc([C@@H]2CC(=O)c3c(cc(O)c(C/C=C(\C)CCC=C(C)C)c3O)O2)cc(O)c1O` . Return the value.
[out] 3.3
